target: human Thyroid hormone Receptor beta (TRb), THRB (gene 7068); assay: ATG_hTRb_XSP1: Attagene TRANS-FACTORIAL Multi-Species (XSP1) HepG2 Assay for human Thyroid hormone Receptor beta (TRb) (AID 2283808)
Records with an inconclusive call do not appear. Active and inactive are the calls of the source. How the source made its calls: active means hit-call score of the fitted dose curve at least 0.9, where 1 is the maximum; inconclusive means response in the unintended direction; inactive means score below 0.9.
Result Type: AC50

>>> observed_result("CCCCOC(=O)c1ccccc1C(=O)OCCCC")
"inactive"
>>> observed_result("CCCCNC(=O)OCC#CI")
"inactive"
>>> observed_result("CCCN(CCC)c1c([N+](=O)[O-])cc(S(N)(=O)=O)cc1[N+](=O)[O-]")
"9.26 µM (active)"
>>> observed_result("C=CC1(C)OC(=O)N(c2cc(Cl)cc(Cl)c2)C1=O (stereo unspecified)")
"67.6 µM (active)"
>>> observed_result("C#CCOS(=O)OC1CCCCC1Oc1ccc(C(C)(C)C)cc1 (stereo unspecified)")
"inactive"
>>> observed_result("CCCCC(CC)COC(=O)c1ccccc1C(=O)OCC(CC)CCCC (stereo unspecified)")
"100 µM (active)"

* * *

molecular target: zebrafish Estrogen Receptor (ER1), esr1 (gene 259252) (UniProt P57717); assay: ATG_zfER1_XSP2: Attagene TRANS-FACTORIAL Multi-Species (XSP2) HepG2 Assay for zebrafish Estrogen Receptor (ER1) (AID 2283816)
Sequence (P57717 whole entry, looked up): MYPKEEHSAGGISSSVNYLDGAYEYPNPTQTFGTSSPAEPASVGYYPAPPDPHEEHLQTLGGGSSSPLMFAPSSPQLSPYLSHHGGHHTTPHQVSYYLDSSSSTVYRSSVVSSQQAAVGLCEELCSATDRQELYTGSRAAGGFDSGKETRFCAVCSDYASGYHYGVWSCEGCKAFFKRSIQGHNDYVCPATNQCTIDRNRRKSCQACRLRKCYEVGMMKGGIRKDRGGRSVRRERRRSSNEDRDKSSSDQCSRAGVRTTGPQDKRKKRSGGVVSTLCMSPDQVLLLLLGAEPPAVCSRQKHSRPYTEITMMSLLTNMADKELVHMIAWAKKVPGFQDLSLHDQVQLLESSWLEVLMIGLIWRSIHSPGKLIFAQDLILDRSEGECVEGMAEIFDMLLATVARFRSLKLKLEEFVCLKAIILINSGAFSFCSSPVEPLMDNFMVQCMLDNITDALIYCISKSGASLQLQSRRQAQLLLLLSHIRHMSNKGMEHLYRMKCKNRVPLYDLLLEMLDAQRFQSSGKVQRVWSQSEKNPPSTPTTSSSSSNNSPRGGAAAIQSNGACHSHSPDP
Records with an inconclusive call do not appear. Calls of active or inactive are those of the source. How the source made its calls: active means hit-call score of the fitted dose curve at least 0.9, where 1 is the maximum; inconclusive means response in the unintended direction; inactive means score below 0.9.
Outcomes: t = active, f = inactive

>>> discrete_label("CC(C)(C)c1ccc(CSc2cnn(C(C)(C)C)c(=O)c2Cl)cc1")
"f"
>>> discrete_label("CCCCOC(=O)c1ccccc1C(=O)OCCCC")
"f"
>>> discrete_label("OC(c1ccc(Cl)cc1)(c1cncnc1)c1ccccc1Cl (stereo not drawn)")
"t"

* * *

read-out: HGF (gene 3082); experiment: LTEA_HepaRG_HGF: Life Technologies and Expression Analysis (LTEA) Assay for Hepatocyte Growth Facto (HGF) using HepaRG (AID 2283505); conditions: mRNA level, 48 h; actives raise or lower the signal
Activity calls are given as the source filed them. How the source made its calls: active means hit-call score of the fitted dose curve at least 0.9, where 1 is the maximum; inactive means score below 0.9.
Possible outcomes: 1.0 for active, 0.0 for inactive

>>> discrete_label("CCOC(=O)CC(SP(=S)(OC)OC)C(=O)OCC (stereo unspecified)")
0.0
>>> discrete_label("COP(N)(=O)SC (stereo unspecified)")
0.0
>>> discrete_label("O=C(O)c1nc(Cl)ccc1Cl")
0.0
>>> discrete_label("CC(C)C1(C)N=C(c2nc3ccccc3cc2C(=O)O)NC1=O (stereo unspecified)")
0.0
>>> discrete_label("Oc1ccccc1-c1ccccc1")
0.0
>>> discrete_label("CC(C)(C)c1ccc(CSc2cnn(C(C)(C)C)c(=O)c2Cl)cc1")
0.0
>>> discrete_label("CCCCNC(=O)n1c(NC(=O)OC)nc2ccccc21")
0.0
>>> discrete_label("CCCCC(CC)COC(=O)c1ccccc1C(=O)OCC(CC)CCCC (stereo unspecified)")
0.0
>>> discrete_label("C=CCC1=C(C)C(OC(=O)C2C(C=C(C)C)C2(C)C)CC1=O (stereo unspecified)")
0.0
>>> discrete_label("CCNc1nc(Cl)nc(NCC)n1")
0.0
>>> discrete_label("Cc1ccc(-c2c(Cl)nc(C#N)n2S(=O)(=O)N(C)C)cc1")
1.0

* * *

read-out: ATP-citrate lyase (ACLY), ACLY (gene 47); experiment: LTEA_HepaRG_ACLY: Life Technologies and Expression Analysis (LTEA) Assay for ATP-citrate lyase (ACLY) using HepaRG (AID 2283466); settings: mRNA level, 48 h; actives raise or lower the signal
Active and inactive are the calls of the source. Rule for the calls: active = hit-call score of the fitted dose curve at least 0.9, where 1 is the maximum; inactive = score below 0.9.
Result Type: AC50

>>> observed_result("CCCC1COC(Cn2cncn2)(c2ccc(Cl)cc2Cl)O1 (stereo not drawn)")
"11.9 µM (active)"
>>> observed_result("C=CCC1=C(C)C(OC(=O)C2C(C=C(C)C)C2(C)C)CC1=O (stereo not drawn)")
"inactive"
>>> observed_result("CCOc1cc(Oc2ccc(C(F)(F)F)cc2Cl)ccc1[N+](=O)[O-]")
"inactive"

* * *

assay: CCTE_Mundy_HCI_Cortical_Synap_Neur_Matur_CellBodySpotCount: CCTE's Synaptogenesis and Neurite Maturation Assay in rat cortical cells for Cell Body Spot Count, Mundy Lab (AID 2284223)
Active and inactive are the calls of the source. Rule for the calls: active = hit-call score of the fitted dose curve at least 0.9, where 1 is the maximum; inactive = score below 0.9.
Result Type: AC50

>>> observed_result("CCOC(=O)CC(SP(=S)(OC)OC)C(=O)OCC (stereo unspecified)")
"inactive"
>>> observed_result("CNC(=O)ON=CC(C)(C)SC")
"inactive"
>>> observed_result("CCCCOC(=O)c1ccccc1C(=O)OCCCC")
"89.5 µM (active)"
>>> observed_result("C=CCC1=C(C)[C@@H](OC(=O)[C@@H]2[C@@H](C=C(C)C)C2(C)C)CC1=O")
"21.8 µM (active)"
>>> observed_result("N#Cc1nn(-c2c(Cl)cc(C(F)(F)F)cc2Cl)c(N)c1S(=O)C(F)(F)F (stereo unspecified)")
"inactive"
>>> observed_result("Cc1ccc(-c2c(Cl)nc(C#N)n2S(=O)(=O)N(C)C)cc1")
"87.8 µM (active)"
>>> observed_result("CCOc1cc(Oc2ccc(C(F)(F)F)cc2Cl)ccc1[N+](=O)[O-]")
"14.3 µM (active)"
>>> observed_result("CCCCNC(=O)n1c(NC(=O)OC)nc2ccccc21")
"inactive"
>>> observed_result("CN(C)C(=S)SSC(=S)N(C)C")
"0.0783 µM (active)"
>>> observed_result("C=CCC1=C(C)C(OC(=O)C2C(C=C(C)C)C2(C)C)CC1=O (stereo unspecified)")
"inactive"
>>> observed_result("CC(C)(C)c1ccc(CSc2cnn(C(C)(C)C)c(=O)c2Cl)cc1")
"0.00106 µM (active)"

* * *

assay: ATG_NF_kB_CIS: Attagene CIS-FACTORIAL HepG2 Assay for human Nuclear Factor Kappa B (NF-kB) (AID 2282991); conditions: HepG2 Attagene cis-factorial NF-kB reporter mRNA; actives raise or lower the signal
Active and inactive are the calls of the source. The calls were made as follows: active = hit-call score of the fitted dose curve at least 0.9, where 1 is the maximum; inactive = score below 0.9.
Outcomes: YES for active, NO for inactive

>>> discrete_label("CCCCOC(=O)c1ccccc1C(=O)OCCCC")
"NO"
>>> discrete_label("Cc1ccc(-c2c(Cl)nc(C#N)n2S(=O)(=O)N(C)C)cc1")
"NO"
>>> discrete_label("N#CC(CCc1ccc(Cl)cc1)(Cn1cncn1)c1ccccc1 (configuration not stated)")
"NO"
>>> discrete_label("COc1ccc(C(c2ccc(OC)cc2)C(Cl)(Cl)Cl)cc1")
"NO"
>>> discrete_label("COC(=O)C(C)Oc1ccc(Oc2ccc(Cl)cc2Cl)cc1 (configuration not stated)")
"NO"
>>> discrete_label("O=C(Nc1ccccc1)Nc1ccnc(Cl)c1")
"YES"
>>> discrete_label("CC(C)Oc1cc(-n2nc(C(C)(C)C)oc2=O)c(Cl)cc1Cl")
"NO"
>>> discrete_label("COc1nc(NC(C)C)nc(NC(C)C)n1")
"NO"
>>> discrete_label("CC(C)C1(C)N=C(c2nc3ccccc3cc2C(=O)O)NC1=O (configuration not stated)")
"NO"
>>> discrete_label("CCCN(CCC)c1c([N+](=O)[O-])cc(S(N)(=O)=O)cc1[N+](=O)[O-]")
"NO"
>>> discrete_label("CCON=C(CC)C1=C(O)CC(c2c(C)cc(C)cc2C)CC1=O (configuration not stated)")
"NO"
>>> discrete_label("N#Cc1cc(Br)c(O)c(Br)c1")
"NO"

* * *

Assay: CEETOX_H295R_CORTIC: CeeTox H295R High-throughput Steroidogenesis Assay for Corticosterone (CORTIC) (AID 2283437);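 further: corticosterone secreted into medium quantified by mass spectrometry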
Settings: actives raise or lower the signal
Procedure: CEETOX_H295R is a cell-based, multiplexed-readout assay that uses H295R, a human adrenal gland cell line, with measurements taken at 48 hours after chemical dosing in a 96-well plate.CEETOX_H295R_CORTIC is one of 23 assay component(s) measured or calculated from the CEETOX_H295R assay. […] This assay endpoint, CEETOX_H295R_CORTIC, was analyzed with bidirectional fitting relative to DMSO as the negative control and baseline of activity. […]
Calls of active or inactive are those of the source. The calls were made as follows: active = hit-call score of the fitted dose curve at least 0.9, where 1 is the maximum; inactive = score below 0.9.
Result Type: outcome

>>> observed_result("N#CC(CCc1ccc(Cl)cc1)(Cn1cncn1)c1ccccc1 (centres undefined)")
"inactive"
>>> observed_result("CCON=C(CC)C1=C(O)CC(c2c(C)cc(C)cc2C)CC1=O (centres undefined)")
"inactive"
>>> observed_result("COP(=S)(OC)Oc1nc(Cl)c(Cl)cc1Cl")
"inactive"
>>> observed_result("CNC(=S)S")
"inactive"

* * *

read-out: Monocyte Chemoattractant Protein-1 (MCP1), CCL2 (gene 6347); experiment: BSK_4H_MCP1: BioMAP Diversity Plus: 4H Assay for Monocyte Chemoattractant Protein-1 (MCP1) Biomarker Activity (AID 2283018); conditions: primary human endothelial cells (HUVEC); actives raise or lower the signal
Active and inactive are the calls of the source. Rule for the calls: active = hit-call score of the fitted dose curve at least 0.9, where 1 is the maximum; inactive = score below 0.9.
Labels: active, inactive

>>> discrete_label("CC(C)(C)c1ccc(CSc2cnn(C(C)(C)C)c(=O)c2Cl)cc1")
"active"
>>> discrete_label("CCCC1COC(Cn2cncn2)(c2ccc(Cl)cc2Cl)O1 (stereo not drawn)")
"inactive"
>>> discrete_label("CNC(=S)S")
"inactive"

The reported measurements were obtained from PubChem BioAssay (EPA / NIEHS).
